Field: self-aminoacylation. Provide a value for each of the sequences that follow.
Test system: biotinyl-Trp-oxazolone
Assay: self-aminoacylation, catalytic enhancement (BWO) (fold over background); higher = more active; k-Seq, kA / k0A0; sequences stand for … in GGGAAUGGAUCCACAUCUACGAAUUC…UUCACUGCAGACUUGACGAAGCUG
Variants at the floor of the assay were thinned out.
Answer with a bare number; do not write a unit.

Looking up AUUCACCUAGGUCAUUAGGUG [Fam2.2 aminoacylation ribozyme variant] , I found its self-aminoacylation recorded as 2.24

Looking up AUUACCCUGGUCCUCGAGUGU [Fam2.1 aminoacylation ribozyme variant] , I found its self-aminoacylation recorded as 3.02

Looking up AAUUUUUCUAAUAGUCGCAAG [Fam3.1 aminoacylation ribozyme variant] , I found its self-aminoacylation recorded as 1.54

Looking up AAGUUUGCUAAUAGUCCCAAC [Fam3.1 aminoacylation ribozyme variant] , I found its self-aminoacylation recorded as 0.629

Looking up CCACACUACAUGCAAUCGGUC [Fam1B.1 aminoacylation ribozyme variant] , I found its self-aminoacylation recorded as 0.812

// provenance: the supplement of paper PMC9233669
